- method: small-molecule microarray binders of probe aDKK1, primary screen, biochemical, biotinylated probe, 635/667 nm fluorescence (AID 1099);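 also: score merges 667nm spot fluorescence with signal to noise across triplicate slides; reference of the scale not given here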
- run_conditions: higher = more signal
# label = criterion met if composite z-score >= 0.6 else criterion not met

compound	category
[N-]=[N+]=NCc1ccccc1C[C@@]1(C(=O)N2CCOCC2)N=C(c2ccc(OCCCO)cc2)O[C@@H]1c1ccccc1	criterion met
CC(C)N1C(=O)C[C@@](C(=O)NCCCN(C)C)(c2ccc([N+](=O)[O-])cc2)[C@H]1c1ccc(CO)cc1	criterion not met
[N-]=[N+]=NCc1ccccc1C[C@]1(C(N)=O)N=C(c2ccc(OCCCO)cc2)O[C@H]1c1ccccc1	criterion met

Query string: I'd appreciate it if you could say whether COCCOC(=O)N1C(=O)[C@@]2(c3cc(C#CC4=CCCCC4)ccc31)[C@H](c1ccccc1OCCO)N1[C@H](c3ccccc3)[C@H](c3ccccc3)OC(=O)[C@H]1[C@@H]2C(=O)N1CCCCCCC1 has composite z-score at least equal to 0.6.
Result string: criterion met

Query string: I'd appreciate it if you could say whether COCCCNC(=O)[C@@]1(Cc2ccccc2N=[N+]=[N-])COC(c2ccc(OCCCO)cc2)=N1 has composite z-score at least equal to 0.6.
Result string: criterion not met

Query string: I'd appreciate it if you could say whether CC(C)(C)N1CC=CC23O[C@@H]4C=CCOC(=O)[C@@H]4[C@H]2C(=O)N(CCCCCCO)[C@@H]3C1=O (some centres not stated) has composite z-score at least equal to 0.6.
Result string: criterion not met

Query string: I'd appreciate it if you could say whether C=CCNC(=O)[C@H]1[C@@H]2C(=O)O[C@@H](c3ccccc3)[C@@H](c3ccccc3)N2[C@@H](c2ccc(O)cc2)[C@]12C(=O)Nc1ccc(C#CC3(O)CCCCCC3)cc12 has composite z-score at least equal to 0.6.
Result string: criterion not met

Query string: I'd appreciate it if you could say whether CCCCCCCCCCC(O)C1C=CC2C(=O)N(C)C(=O)C2N1NC(=O)OC(C)(C)C (configuration not stated) has composite z-score at least equal to 0.6.
Result string: criterion not met

Query string: I'd appreciate it if you could say whether [N-]=[N+]=NCc1ccccc1C[C@@]1(C(=O)NCc2ccccc2)N=C(c2ccc(OCCCO)cc2)O[C@@H]1c1ccccc1N=[N+]=[N-] has composite z-score at least equal to 0.6.
Result string: criterion not met

Query string: I'd appreciate it if you could say whether C=C(C)[C@@H]1CC=C(C(O)C2C=CC3C(=O)N(c4ccccc4)C(=O)C3N2Nc2ccccc2F)CC1 (some centres not stated) has composite z-score at least equal to 0.6.
Result string: criterion met

Query string: I'd appreciate it if you could say whether COC(=O)[C@@]1(Cc2ccc(OC)cc2)[C@H]2c3cc(C(=O)N(C)C)n(C[C@H](O)CO)c3C[C@H]2CN1C(=O)c1ccccc1 has composite z-score at least equal to 0.6.
Result string: criterion met

Query string: I'd appreciate it if you could say whether CC(C)C[C@@H]1NC(=O)[C@@H]2C[C@H](C(=O)NCCCCCN)[C@H](c3ccc(O)cc3)N2C1=O has composite z-score at least equal to 0.6.
Result string: criterion not met

Query string: I'd appreciate it if you could say whether Cc1ccc(S[C@]2(C(=O)NCC(F)(F)F)CC(=O)N(Cc3ccccc3)[C@@H]2c2ccc(CO)cc2I)cc1 has composite z-score at least equal to 0.6.
Result string: criterion not met

Query string: I'd appreciate it if you could say whether CC=CC(O)C1C=CC2C(=O)N(c3ccccc3)C(=O)C2N1Nc1ccccc1F (configuration not stated) has composite z-score at least equal to 0.6.
Result string: criterion met

Sourced from PubChem BioAssay
